MEASUREMENT NOTES: chemical genetic growth profiling, strain panel (AID 1159580);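 note: tested at 20 µM; growth read once vehicle control cultures reached saturation at 30 °C; 1 = growth at the plate median or of vehicle wells; lower values mean less growth of the strain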
CONDITIONS USED: S. cerevisiae deletion strains, growth OD, locus YLR371W, strain rom2, active compounds read low
Out of some 5,500 compounds screened, about 2,000 (36%) were called active. Roughly 18% stayed inconclusive and do not appear here. The list shows a part of the results.
Hi there, I'd appreciate the recorded normalized growth for every entry that follows.
Write no unit; give the number alone.

Q. Given the compound CN(C)c1nc(N)c(C(=O)N=C(N)N)nc1Cl , what is its reported normalized growth?
A. 1.01

Q. Cool, now C[C@@H]1CC[C@@]2(OC1)OC1CC3C4CC=C5C[C@@H](O)CC[C@]5(C)C4CC[C@]3(C)C1[C@@H]2C (stereo partly drawn)
A. 0.964

Q. Cool, now CC1CC[C@@]2(OC1)O[C@H]1CC3C4CC[C@@H]5CC(=O)CC[C@]5(C)C4CC[C@]3(C)[C@H]1[C@@H]2C (stereo partly drawn)
A. 1.01

Q. Cool, now CCCCCCCCCCCCCCCCCC(=O)OC(CC(=O)O)C[N+](C)(C)C (stereo not drawn)
A. 0.9

Q. Cool, now CC1CC[C@]2(NC1)O[C@H]1CC3C4CC[C@H]5C[C@@H](O)CC[C@]5(C)C4CC[C@]3(C)[C@H]1[C@@H]2C (stereo partly drawn)
A. 0.0788

Q. Cool, now CC1CC[C@@]2(OC1)O[C@H]1CC3C4CC[C@@H]5C[C@@H](O)CC[C@]5(C)C4CC[C@]3(C)[C@H]1[C@@H]2C (stereo partly drawn)
A. 1.01

Q. Cool, now COc1ccc2c3c1OC1C(O)CC=C4C(C2)N(C)CCC431 (stereo not drawn)
A. 1.01

Q. Cool, now CCCC(C)(COC(N)=O)COC(=O)NC(C)C (stereo not drawn)
A. 0.959

Q. Cool, now CN[C@@H]1C(O)[C@@H](O[C@@H]2[C@@H](O)[C@H](O[C@H]3OC(CN)=CC[C@H]3N)[C@@H](N)C[C@H]2N)OC[C@]1(C)O (stereo partly drawn)
A. 0.995

Q. Cool, now CC(C)c1c(O)ccc2c1CCC1C(C)(C)CCC[C@]21C (stereo partly drawn)
A. 0.186

Q. Cool, now CC1(C)C(=O)C=C[C@@]2(C)C1C[C@@H](O)[C@]1(C)C2CC[C@@]2(C)[C@H](c3ccoc3)OC(=O)[C@H]3O[C@]321 (stereo partly drawn)
A. 0.99

Q. Cool, now CC1CCC2(OC1)OC1CC3C4CC[C@H]5C[C@@H](O)CC[C@]5(C)C4CC(=O)[C@]3(C)C1C2C (stereo partly drawn)
A. 0.976

Q. Cool, now C[C@@H]1CC[C@@]2(NC1)O[C@H]1C[C@H]3C4CC=C5C[C@@H](O)CC[C@]5(C)C4CC[C@]3(C)C1[C@@H]2C (stereo partly drawn)
A. 0.0867

Q. Cool, now CC(=O)OC(C)C[N+](C)(C)C (stereo not drawn)
A. 1.01

Q. Cool, now CCC(=O)c1c(O)cc(O)cc1O
A. 0.982

Q. Cool, now C[C@@H]1CC[C@@]2(OC1)O[C@H]1CC3C4CC[C@H]5C[C@@H](O)CC[C@]5(C)C4CC[C@]3(C)[C@H]1[C@@H]2C (stereo partly drawn)
A. 0.979

Q. Cool, now NC(N)=NC(=O)c1nc(Cl)c(N2CCCCCC2)nc1N
A. 1.03

Q. Cool, now CC(=O)O[C@@H]1CC(=O)[C@@]2(C)C(CC(=O)[C@]3(C)C2CC[C@@]2(C)[C@H](c4ccoc4)OC(=O)C4OC423)C1(C)C (stereo partly drawn)
A. 1
